measurementTarget: T1, biotinylated full-length HER2 (human, UniProt P04626 23-652, limits assumed, biotinylated (site not stated))
T1 construct: Immobilised on the SPR chip; also called bio-HER2; Human Epidermal Growth Factor Receptor 2
assayText: SPR, single trace, 500 nM analyte over biotinylated HER2 on the chip, double-referenced, 1:1 Langmuir fit [continued]
propertyName: pKd
Just the number, please; pKd means minus log10 of the concentration in mol/L.

QUERY: Endpoint output: pKd of DARPin07-GSGSC-DTPA (designed binder, maleimide-DTPA coupled to the C-terminal Cys of the GSGSC tag, Charge variant of DARPin06 (negative control for kidney uptake, higher pI); His-TEV tag cleaved off; possible N-terminal GS not included; also called construct 7) DLGTQLLRAAESGQLDTVRTLLKAGADVNAKDEYGLTPLYLATAHGHLQIVRVLLQAGADVNAKDAIGFTPLHLAAFIGHLKIAEVLLKAGADVNAQDKFGKTPAQIAATAGNQQIASVLQKAAGSGSC . Value?
RESULT: 9.34

QUERY: Same question for DARPin09-GSGSC-DTPA (designed binder, maleimide-DTPA coupled to the C-terminal Cys of the GSGSC tag, Charge variant of DARPin06; His-TEV tag cleaved off; possible N-terminal GS not included; also called construct 9) DLGTQLLQAAESGQLDTVRTLLKAGADVNAQDEYGLTPLYLATAHGHLQIVQVLLSAGADVNAQDAIGFTPLHLAAFIGHLQIAQVLLSAGADVNAQDKFGTTPAQIAATAGNQQIASVLQQAAGSGSC please.
RESULT: 8.84

QUERY: Same question for DARPin11-GSGSC-DTPA (designed binder, maleimide-DTPA coupled to the C-terminal Cys of the GSGSC tag, Parent; His-TEV tag cleaved off; possible N-terminal GS not included; also called construct 11; DTPA coupled parental DARPin11) DLGIKLLFAAAKGQDDEVRELLKAGADVNAKDFQGVTPLHIAAQSGHLEIVEVLLKAGADVNAKDVTGDTPLHLAAQHGHLEIVEVLLKAGADVNAQDERGWTPADLAADWGHEDIAEVLQKAAGSGSC please.
RESULT: 9.65

QUERY: Same question for DARPin10-GSGSC-DTPA (designed binder, maleimide-DTPA coupled to the C-terminal Cys of the GSGSC tag, Charge variant of DARPin06; His-TEV tag cleaved off; possible N-terminal GS not included; also called construct 10) DLGTQLLQAAESGQLDTVRELLKAGADVNAQDEYGLTPLYLATAHGHLQIVRVLLQAGADVNAQDAIGFTPLHLAAFIGHLEIATVLLKAGADVNAQDKFGKTPADIAATAGNQQIASVLQKAAGSGSC please.
RESULT: 9.21

QUERY: Same question for DARPin08-GSGSC-DTPA (designed binder, maleimide-DTPA coupled to the C-terminal Cys of the GSGSC tag, Charge variant of DARPin06; His-TEV tag cleaved off; possible N-terminal GS not included; also called construct 8) DLGTQLLRAAESGQLDEVRELLKAGADVNAQDEYGLTPLYLATAHGHLEIVTVLLEAGADVNAQDAIGFTPLHLAAFIGHLEIATVLLEAGADVNAQDKFGKTPADIAAGAGNEDIAEVLQKAAGSGSC please.
RESULT: 9.23

QUERY: Same question for DARPin12-GSGSC-DTPA (designed binder, maleimide-DTPA coupled to the C-terminal Cys of the GSGSC tag, Charge variant of DARPin11; His-TEV tag cleaved off; possible N-terminal GS not included; also called construct 12) DLGIQLLFAAAKGQLDTVRTLLQAGADVNAKDFQGVTPLHIAAQSGHLQIVEVLLQAGADVNAKDVTGDTPLHLAAQHGHLQIVTVLLQAGADVNAQDERGWTPADLAADWGNQQIAEVLQQAAGSGSC please.
RESULT: 9.01

// data source = patent US20240132546A1
